Hey, just so you know, these numbers are from patent US20210147523A1.

Documented pIC50, S1P transport inhibition (S1PR3 Ca2+ FLIPR bioassay) across a set of binders
Biological target: T1, mouse SPNS2 (mouse, UniProt Q91VM4 1-549)
T1 sequence: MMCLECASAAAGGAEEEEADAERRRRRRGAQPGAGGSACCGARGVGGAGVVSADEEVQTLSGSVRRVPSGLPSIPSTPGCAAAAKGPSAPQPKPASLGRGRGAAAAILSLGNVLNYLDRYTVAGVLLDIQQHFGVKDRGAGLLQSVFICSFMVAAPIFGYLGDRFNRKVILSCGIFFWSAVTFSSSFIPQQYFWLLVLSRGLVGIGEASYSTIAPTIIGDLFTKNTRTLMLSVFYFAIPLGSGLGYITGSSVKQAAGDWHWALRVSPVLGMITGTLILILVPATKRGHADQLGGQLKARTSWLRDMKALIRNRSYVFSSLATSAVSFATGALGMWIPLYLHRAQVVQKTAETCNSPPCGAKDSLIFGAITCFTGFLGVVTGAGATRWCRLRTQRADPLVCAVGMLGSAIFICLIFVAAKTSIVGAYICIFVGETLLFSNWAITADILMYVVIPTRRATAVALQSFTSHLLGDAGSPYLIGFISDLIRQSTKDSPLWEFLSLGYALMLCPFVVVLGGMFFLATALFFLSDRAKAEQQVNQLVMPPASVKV
Experiment: cell-based or functional assay

binder="37-0511F (antibody, IgG2b, V domains shown) VH: EVHLQQSGAALVRPRASVKLSCKVSGDSISRYYVHFVKQRPGQGLEWIGRIDPEDDTTKYSEKFKNRATLTADASSDTASLILSGLTSDDTATYFCSTLTGLDYWGQGVMVTVSS VL: DIQMTQSPPVLSTSVGDRVTLRCKPSQNVHSKLDWYQQKHGEAPKLLIYYTHNLQTGIPSRFSGSGSGTDYTLTISSLQPEDVATYYCFQYYSGWTFGGGTKLEMKR" assay_value="7.8 pIC50 (M)"
binder="83-1110B (antibody, IgG2b, V domains shown) VH: EVQLQQSGPEFVRPGTSVKFSCKVSGGSITSYFIHFVKQRPGQGLEWIGKIDPEDDSTKYGEKFKNKATLTADTSSNTAFLKLSSLTSEDTAIYFCTTLTGLDYWGQGVMVTVSS VL: DIQMTQSPPVLSAAVGDRVTLSCKASRSLNKNLDWYQQKHGETPKLLIYHTHNLQTGIPSRFSGSGSDTDYTLTISSLQTEDVATYYCYQYHSGWTFGGGTRLELRR" assay_value="8 pIC50 (M)"
binder="94-1311E (antibody, V domains shown) VH: EVQLQQSGAGLVRPRTSVRLSCKISGDSITAYYVHFVKQRPGQGLEWIGRIDPEDDSTKYSEKFKNKATLTADVSSSTAYLILSSLTSDDSATYFCSTLTGLDYWGQGVMVTVSS VL: DIQMTQSPPVLSASVGDRVTLSCKASQSVHNKLDWYQQKHGEAPKLLIYYTHNLQTGIPSRFSGSGSGSDYTLTISSLRAEDVATYYCFQYYSGWTFGGGTKLEMKR" assay_value="8.1 pIC50 (M)"
binder="96-1403F (antibody, IgG2b, V domains shown) VH: EVQLVETGGGLVRPGSSLKLSCATSGFTFSDTWMSWVRQAPGKGLEWVALIKDKNSNSEANYAESIKGRFTISRDDSKSRVYLQMNTLRDQDTATYYCTRHEDFYYYSGYYFDYWGQGVMVTVSS VL: DIVLTQSPPTLSVTPGESVSLSCRASQGISTSIHWYQQRSNESPRLLIKYASQSIAGIPSRFSGSGSGTDFILSINRVESEDFSVYYCQQTYSLPLTFGPGTKLEVKR" assay_value="7.3 pIC50 (M)"

Consider the additional binder presented here.
input: I would be grateful if you could share the reported pIC50, S1P transport inhibition (S1PR3 Ca2+ FLIPR bioassay) for 49-0703G (antibody, IgG2b, V domains shown) VH: EVQLVESGGGLVQPGRSMKLSCAASGFTFSNHYMAWVRQAPTKGLEWVASISTGGGNTYYRDSVKGRFTISRDNAKSTLYLQMDSLRSEDTATYYCARQDYSNYMGGFAYWGQGTLVTVSS VL: QFVLTQPNSVSTNLGSTVKLSCKRSTGNIGNNYVNWYQQYEGRSPTTMIYRDDERPDGVPDRFSGSIDRSSNSALLTINNVQTEDEADYFCQSFSNGMFIFAGGTQLTVL .
output: 7.3 pIC50 (M)
